Overview of recorded IC50 for various molecules
- Target Of Assay: human MDM4 protein (amino acids 2-185) (Homo sapiens, UniProt O15151)
- Construct: human MDM4 protein (amino acids 2-185); made in house
- Sequence (O15151 2-185): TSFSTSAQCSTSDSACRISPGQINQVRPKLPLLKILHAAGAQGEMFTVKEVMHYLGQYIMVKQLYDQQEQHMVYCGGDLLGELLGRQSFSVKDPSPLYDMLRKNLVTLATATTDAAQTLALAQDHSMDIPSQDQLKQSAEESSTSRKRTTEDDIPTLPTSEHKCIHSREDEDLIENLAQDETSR
- Test: p53-MDM4 TR-FRET assay (p53-MDM4 Assay 1)
- Type: binding
- Conditions: 2.5 nM MDM4-biotinylated, 10 nM Cy5-p53 peptide; read-out: IC50 (μM) of p53-Hdm4 inhibition (TR-FRET) Assay 1

>  <Molecule>
CCN1CCC(C(C)(O)c2ccc(N3C(=O)Cc4cc(OC)c(OC(C)C)cc4[C@@H]3c3ccc(Cl)cc3)cc2)CC1 (stereo partly drawn) [Example 85]

>  <Target Of Assay>
human MDM4 protein (amino acids 2-185) (Homo sapiens, UniProt O15151)

>  <Units>
µM

>  <IC50>
4.94

$$$$
>  <Molecule>
COc1cc2c(cc1OC(C)C)[C@H](c1ccc(Cl)cc1)N(c1ccc(C(C)(O)C3CCN(C(=O)C4CC4)CC3)cc1)C(=O)C2 (stereo partly drawn) [Example 80]

>  <Target Of Assay>
human MDM4 protein (amino acids 2-185) (Homo sapiens, UniProt O15151)

>  <Units>
µM

>  <IC50>
5.11

$$$$
>  <Molecule>
COc1cc2c(cc1OC(C)C)[C@H](c1ccc(Cl)cc1)N(c1ccc(C(C)(O)C3CCN(S(C)(=O)=O)CC3)cc1)C(=O)C2 (stereo partly drawn) [Example 81]

>  <Target Of Assay>
human MDM4 protein (amino acids 2-185) (Homo sapiens, UniProt O15151)

>  <Units>
µM

>  <IC50>
5.11

$$$$

###

- Target Of Assay: human MDM4 protein (amino acids 2-185) (Homo sapiens)
- Construct: human MDM4 protein (amino acids 2-185); made in house
- Test: p53-MDM4 TR-FRET assay (p53-MDM4 Assay 1)
- Type: binding
- Conditions: 2.5 nM MDM4-biotinylated, 10 nM Cy5-p53 peptide; read-out: IC50 (μM) of p53-Hdm4 inhibition (TR-FRET) Assay 1
Overview of recorded log10(IC50) for various compounds
Measure Name: log10(IC50) (log10 of the value in µM)

>  <Compound>
COc1cc2c(cc1OC(C)C)[C@H](c1ccc(Cl)cc1)N(c1ccc(C(C)(O)C3CCN(C(=O)OC(C)(C)C)CC3)cc1)C(=O)C2 (stereo partly shown)

>  <Measure Name>
log10(IC50)

>  <Measured Number>
1.17

$$$$
>  <Compound>
CC(C)Oc1cc2c(cc1OCc1ccccn1)CC(=O)N(c1ccc(C(C)(O)C3CCOCC3)cc1)[C@H]2c1ccc(Cl)cc1 (stereo partly shown)

>  <Measure Name>
log10(IC50)

>  <Measured Number>
0.08

$$$$
>  <Compound>
COc1cc2c(cc1OC(C)C)[C@H](c1ccc(Cl)cc1)N(c1ccc([C@](C)(O)C34CCC(CC3)O4)cc1)C(=O)C2 (single isomer, unassigned)

>  <Measure Name>
log10(IC50)

>  <Measured Number>
1.41

$$$$
>  <Compound>
COc1cc2c(cc1OC(C)C)[C@H](c1ccc(Cl)cc1)N(c1ccc(C(C)(O)C3CCN(C(=O)CC#N)CC3)cc1)C(=O)C2 (stereo partly shown)

>  <Measure Name>
log10(IC50)

>  <Measured Number>
1.03

$$$$
>  <Compound>
COc1cc2c(cc1OC(C)C)[C@H](c1ccc(Cl)cc1)N(c1ccc(C(C)(O)C3CNC3)cc1)C(=O)C2 (stereo partly shown)

>  <Measure Name>
log10(IC50)

>  <Measured Number>
1.61

$$$$
>  <Compound>
COc1cc2c(cc1OC(C)C)[C@H](c1ccc(Cl)cc1)N(c1ccc(C(C)(O)C3CN(C)C3)cc1)C(=O)C2 (stereo partly shown)

>  <Measure Name>
log10(IC50)

>  <Measured Number>
1.78

$$$$
>  <Compound>
COc1cc2c(cc1OC(C)C)[C@H](c1ccc(Cl)cc1)N(c1ccc(C(C)(O)C3CN(C(C)=O)C3)cc1)C(=O)C2 (stereo partly shown)

>  <Measure Name>
log10(IC50)

>  <Measured Number>
1.13

$$$$
>  <Compound>
COc1cc2c(cc1OC(C)C)[C@H](c1ccc(Cl)cc1)N(c1ccc(C(C)(O)C3CN(CC(F)(F)F)C3)cc1)C(=O)C2 (stereo partly shown)

>  <Measure Name>
log10(IC50)

>  <Measured Number>
1.26

$$$$
>  <Compound>
CCN1CCC(N2CC(C(C)(O)c3ccc(N4C(=O)Cc5cc(OC)c(OC(C)C)cc5[C@@H]4c4ccc(Cl)cc4)cc3)C2)CC1 (stereo partly shown)

>  <Measure Name>
log10(IC50)

>  <Measured Number>
0.98

$$$$
>  <Compound>
COc1cc2c(cc1OC(C)C)[C@H](c1ccc(Cl)cc1)N(c1ccc(C(C)(O)C3CC4CCC(C3)N4CCO)cc1)C(=O)C2 (stereo partly shown)

>  <Measure Name>
log10(IC50)

>  <Measured Number>
0.65

$$$$
>  <Compound>
CCN1C2CCC1CC(C(C)(O)c1ccc(N3C(=O)Cc4cc(OC)c(OC(C)C)cc4[C@@H]3c3ccc(Cl)cc3)cc1)C2 (stereo partly shown)

>  <Measure Name>
log10(IC50)

>  <Measured Number>
0.54

$$$$
>  <Compound>
COc1cc2c(cc1OC(C)C)[C@H](c1ccc(Cl)cc1)N(c1ccc([C@@](C)(O)C34CCC(CC3)O4)cc1)C(=O)C2 (single isomer, unassigned)

>  <Measure Name>
log10(IC50)

>  <Measured Number>
0.47

$$$$
>  <Compound>
COc1cc2c(cc1OC(C)C)[C@H](c1ccc(Cl)cc1)N(c1ccc([C@@](C)(O)C3CC4CCC(C3)S4(=O)=O)cc1)C(=O)C2 (stereo partly shown)

>  <Measure Name>
log10(IC50)

>  <Measured Number>
0.07

$$$$
>  <Compound>
COc1cc2c(cc1OC(C)C)[C@H](c1ccc(Cl)cc1)N(c1ccc(C(C)(O)C3CCNCC3)cc1)C(=O)C2 (stereo partly shown)

>  <Measure Name>
log10(IC50)

>  <Measured Number>
0.70

$$$$
>  <Compound>
COc1cc2c(cc1OC(C)C)[C@H](c1ccc(Cl)cc1)N(c1ccc(C(C)(O)C3CCOCC3)cc1OC)C(=O)C2 (stereo partly shown)

>  <Measure Name>
log10(IC50)

>  <Measured Number>
0.78

$$$$
>  <Compound>
COc1cc2c(cc1OC(C)C)[C@H](c1ccc(Cl)cc1)N(c1ccc([C@@](C)(O)C3CCS(=O)(=O)CC3)cc1)C(=O)C2

>  <Measure Name>
log10(IC50)

>  <Measured Number>
0.29

$$$$
